The following compounds were reported with pIC50 values on RON (Homo sapiens, UniProt Q04912) in different studies.
pIC50: −log10 of the molar value.
property: pIC50

>  <compound>
Nc1ncc(-c2cnc(N3CCOCC3)s2)cc1-c1nc2ccccc2s1

>  <target_of_assay>
RON (Homo sapiens, UniProt Q04912)

>  <property>
pIC50

>  <result>
4.70 to 6.00

$$$$
>  <compound>
CC(Oc1ccc2nc(NC(=O)NCCN3CCN(C)CC3)sc2c1)c1c(Cl)ccc(F)c1Cl (stereo not drawn)

>  <target_of_assay>
RON (Homo sapiens, UniProt Q04912)

>  <property>
pIC50

>  <result>
> 6.30

$$$$
>  <compound>
CN1CCC(NC(=O)c2cccc(-c3cnc(N)c(-c4nc5ccccc5s4)c3)c2)CC1

>  <target_of_assay>
RON (Homo sapiens, UniProt Q04912)

>  <property>
pIC50

>  <result>
4.70 to 6.00

$$$$
>  <compound>
Nc1ncc(-c2cccc(C(=O)NCc3ccco3)c2)cc1-c1nc2ccccc2s1

>  <target_of_assay>
RON (Homo sapiens, UniProt Q04912)

>  <property>
pIC50

>  <result>
4.70 to 6.00

$$$$
>  <compound>
CC(Oc1ccc2nc(NC(=O)NCCN3CCOCC3)[nH]c2c1)c1c(Cl)cccc1Cl (stereo not drawn)

>  <target_of_assay>
RON (Homo sapiens, UniProt Q04912)

>  <property>
pIC50

>  <result>
5.00 to 6.30

$$$$
>  <compound>
CC(C)n1cc(-c2ccc(F)cc2)c(=O)c(C(=O)Nc2ccc(Oc3ccnc(N)c3Cl)nc2)n1

>  <target_of_assay>
RON (Homo sapiens, UniProt Q04912)

>  <property>
pIC50

>  <result>
7.80

$$$$
>  <compound>
Nc1ncc(-c2cnn([C@@H]3CN[C@H](C(=O)N4CCCCC4)C3)c2)cc1-c1nc2ccccc2s1

>  <target_of_assay>
RON (Homo sapiens, UniProt Q04912)

>  <property>
pIC50

>  <result>
≥ 7.00

$$$$
>  <compound>
CC(Oc1cc2sc(NC(=O)NCCCN3CCCC3=O)nc2cc1F)c1c(F)ccc(Cl)c1Cl (stereo not drawn)

>  <target_of_assay>
RON (Homo sapiens, UniProt Q04912)

>  <property>
pIC50

>  <result>
> 6.30

$$$$
>  <compound>
Nc1ncc(-c2ccc(C(=O)O)cc2)cc1-c1nc2ccccc2s1

>  <target_of_assay>
RON (Homo sapiens, UniProt Q04912)

>  <property>
pIC50

>  <result>
4.70 to 6.00

$$$$
>  <compound>
Cc1ccc2nc(-c3cc(-c4cnn(C5CCNCC5)c4)cnc3N)sc2c1

>  <target_of_assay>
RON (Homo sapiens, UniProt Q04912)

>  <property>
pIC50

>  <result>
6.00 to 7.00

$$$$
>  <compound>
CC(Oc1cc2sc(NC(=O)NCCO)nc2cc1F)c1c(Cl)ccc(F)c1Cl (stereo not drawn)

>  <target_of_assay>
RON (Homo sapiens, UniProt Q04912)

>  <property>
pIC50

>  <result>
> 6.30

$$$$
>  <compound>
CC(Oc1ccc2nc(NC(=O)NCCN3C(C)CCCC3C)sc2c1)c1c(Cl)ccc(F)c1Cl (stereo not drawn)

>  <target_of_assay>
RON (Homo sapiens, UniProt Q04912)

>  <property>
pIC50

>  <result>
5.00 to 6.30

$$$$
>  <compound>
Nc1ncc(-c2ccc(OCC(=O)O)cc2)cc1-c1nc2ccccc2s1

>  <target_of_assay>
RON (Homo sapiens, UniProt Q04912)

>  <property>
pIC50

>  <result>
4.70 to 6.00

$$$$
>  <compound>
O=C(Nc1ccc(Oc2ccnc3c2C2OCCCN2C(=O)N3)c(F)c1)c1cccn(-c2ccc(F)cc2)c1=O (stereo not drawn)

>  <target_of_assay>
RON (Homo sapiens, UniProt Q04912)

>  <property>
pIC50

>  <result>
7.00 to 8.00

$$$$
>  <compound>
O=C(NCCN1CCOCC1)Nc1nc2ccc(OCc3c(F)cccc3F)cc2s1

>  <target_of_assay>
RON (Homo sapiens, UniProt Q04912)

>  <property>
pIC50

>  <result>
5.00 to 6.30

$$$$
>  <compound>
CC(Oc1ccc2nc(NC(=O)NCc3ccncc3)sc2c1)c1c(Cl)ccc(F)c1Cl (stereo not drawn)

>  <target_of_assay>
RON (Homo sapiens, UniProt Q04912)

>  <property>
pIC50

>  <result>
5.00 to 6.30

$$$$
>  <compound>
CC(Oc1cc2sc(NC(=O)NCC(=O)N3CCN(C)CC3)nc2cc1F)c1c(Cl)ccc(F)c1Cl (stereo not drawn)

>  <target_of_assay>
RON (Homo sapiens, UniProt Q04912)

>  <property>
pIC50

>  <result>
5.00 to 6.30

$$$$
>  <compound>
CN(C)C(=O)c1cccc(-c2cnc(N)c(-c3nc4ccccc4s3)c2)c1

>  <target_of_assay>
RON (Homo sapiens, UniProt Q04912)

>  <property>
pIC50

>  <result>
< 4.70

$$$$
>  <compound>
C[C@@H](Oc1c(N)ncc2[nH]ccc12)c1c(Cl)ccc(F)c1Cl

>  <target_of_assay>
RON (Homo sapiens, UniProt Q04912)

>  <property>
pIC50

>  <result>
4.70 to 5.30

$$$$
>  <compound>
N#Cc1ccc2sc(-c3cc(-c4cnn(C5CCNCC5)c4)cnc3N)nc2c1

>  <target_of_assay>
RON (Homo sapiens, UniProt Q04912)

>  <property>
pIC50

>  <result>
≥ 7.00

$$$$
>  <compound>
CN1CCC(n2cc(-c3cnc(N)c(-c4cc5c(Cl)ccc(F)c5cn4)c3)cn2)CC1

>  <target_of_assay>
RON (Homo sapiens, UniProt Q04912)

>  <property>
pIC50

>  <result>
6.00 to 7.00

$$$$
>  <compound>
Nc1ncc(-c2cnn([C@@H]3CN[C@@H](C(=O)N4CCCCC4)C3)c2)cc1-c1nc2ccccc2s1

>  <target_of_assay>
RON (Homo sapiens, UniProt Q04912)

>  <property>
pIC50

>  <result>
6.00 to 7.00

$$$$
>  <compound>
O=C(NCCN1CCOCC1)Nc1nc2ccc(OCc3c(Cl)cccc3Cl)cc2[nH]1

>  <target_of_assay>
RON (Homo sapiens, UniProt Q04912)

>  <property>
pIC50

>  <result>
5.00 to 6.30

$$$$
>  <compound>
CC(Oc1cc2sc(NC(=O)NCCCN3CCCC3=O)nc2cc1F)c1c(Cl)ccc(F)c1Cl (stereo not drawn)

>  <target_of_assay>
RON (Homo sapiens, UniProt Q04912)

>  <property>
pIC50

>  <result>
> 6.30

$$$$
>  <compound>
CC(Oc1ccc2nc(NC(=O)NCCN3CCOCC3)sc2c1)c1ccccc1C(F)(F)F (stereo not drawn)

>  <target_of_assay>
RON (Homo sapiens, UniProt Q04912)

>  <property>
pIC50

>  <result>
5.00 to 6.30

$$$$
>  <compound>
Nc1ncc(-c2cnn(C3CCNCC3)c2)cc1-c1oc2ccccc2c1-c1cccc(F)c1F

>  <target_of_assay>
RON (Homo sapiens, UniProt Q04912)

>  <property>
pIC50

>  <result>
4.70 to 6.00

$$$$
>  <compound>
Nc1ncc(-c2cnn(CCN3CCOCC3)c2)cc1-c1nc2ccccc2s1

>  <target_of_assay>
RON (Homo sapiens, UniProt Q04912)

>  <property>
pIC50

>  <result>
4.70 to 6.00

$$$$
>  <compound>
Nc1ncc(-c2cnn(C3CCNCC3)c2)cc1-c1nc2cc(F)ccc2s1

>  <target_of_assay>
RON (Homo sapiens, UniProt Q04912)

>  <property>
pIC50

>  <result>
≥ 7.00

$$$$
>  <compound>
CCN1CCN(CCNC(=O)Nc2nc3cc(F)c(OC(C)c4c(Cl)ccc(F)c4Cl)cc3s2)CC1 (stereo not drawn)

>  <target_of_assay>
RON (Homo sapiens, UniProt Q04912)

>  <property>
pIC50

>  <result>
> 6.30

$$$$
>  <compound>
CC(Oc1cc2sc(NC(=O)NCCN3CCN(C)CC3)nc2cc1F)c1c(Cl)ccc(F)c1Cl (single isomer, unassigned)

>  <target_of_assay>
RON (Homo sapiens, UniProt Q04912)

>  <property>
pIC50

>  <result>
5.00 to 6.30

$$$$
>  <compound>
Nc1ncc(-c2cnn(C3CCNCC3)c2)cc1-c1nc2c(Br)cccc2s1

>  <target_of_assay>
RON (Homo sapiens, UniProt Q04912)

>  <property>
pIC50

>  <result>
6.00 to 7.00

$$$$
>  <compound>
Nc1ncc(-c2cc3ccccc3[nH]2)cc1-c1nc2ccccc2s1

>  <target_of_assay>
RON (Homo sapiens, UniProt Q04912)

>  <property>
pIC50

>  <result>
4.70 to 6.00

$$$$
>  <compound>
CC(Oc1ccc2nc(NC(=O)NCCN3CCCC3)sc2c1)c1c(F)ccc(Cl)c1Cl (single isomer, unassigned)

>  <target_of_assay>
RON (Homo sapiens, UniProt Q04912)

>  <property>
pIC50

>  <result>
> 6.30

$$$$
